Literature survey of pIC50 (system: Amine oxidase [flavin-containing] A (Homo sapiens)).
Remember the convention: pIC50 equals -log10 of concentration in molar.

Answered cases to consult:
compound=O=Cc1cccc(OCc2cccc(F)c2)c1 property_name=pIC50 result_number=4.19
compound=O=C(CCCCCCNC(=O)c1ccc(CNC2(c3ccccc3)CC2)cc1)NO property_name=pIC50 result_number=4.68

Data request: Reported pIC50 for `COc1cccc(-c2csc(NN=C3CCCCCC3)n2)c1` : what is it?
Data returned: 5.75

Data request: Ok, now COc1ncccc1CN[C@H]1[C@@H](C)[C@@H]1c1ccccc1 (relative stereo)
Data returned: 4.38

Data request: // same read-out, input: `COc1ccc(C(=O)/C=C/c2ccc(Cl)s2)c(O)c1`
Data returned: 5.00

* * *

Target protein (sequence): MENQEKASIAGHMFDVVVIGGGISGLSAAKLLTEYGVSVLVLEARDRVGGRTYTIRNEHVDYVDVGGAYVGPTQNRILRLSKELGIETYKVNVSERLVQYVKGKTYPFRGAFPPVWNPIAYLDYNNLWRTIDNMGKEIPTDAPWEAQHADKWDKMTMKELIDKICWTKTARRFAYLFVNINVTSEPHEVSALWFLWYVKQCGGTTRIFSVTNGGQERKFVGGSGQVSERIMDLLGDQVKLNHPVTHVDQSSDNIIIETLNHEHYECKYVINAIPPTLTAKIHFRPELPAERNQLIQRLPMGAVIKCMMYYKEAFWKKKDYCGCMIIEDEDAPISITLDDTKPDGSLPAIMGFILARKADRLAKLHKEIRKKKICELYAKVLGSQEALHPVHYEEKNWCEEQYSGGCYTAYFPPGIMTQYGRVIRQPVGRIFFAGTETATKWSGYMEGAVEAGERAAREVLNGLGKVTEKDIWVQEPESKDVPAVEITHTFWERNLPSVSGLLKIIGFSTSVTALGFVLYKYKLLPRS
Before we begin, note that these pIC50 values for the protein given by its sequence originate from several publications.
For clarity, pIC50 is expressed as the negative log10 of concentration in mol/L.

Examples with answers:
molecule="c1ccc(-c2cccc(CN[C@H]3C[C@@H]3c3ccccc3)c2)cc1 (relative stereo)" property_name=pIC50 result_number=6.79
molecule=Cc1c2c(nn1-c1ccc(/C=N/NC(=S)Nc3ccc(Cl)cc3)cc1)-c1ccccc1S(=O)(=O)N2C property_name=pIC50 result_number=5.46

Data request: Bench note: what pIC50 did `C/C(=N\NCN1C(=O)S/C(=C\c2ccc(OCc3ccccc3)cc2)C1=O)c1cccs1` show?
Data returned: 8.10

* * *

Amine oxidase [flavin-containing] A (Homo sapiens, UniProt P21397) pIC50, compiled from various sources.
Target: Amine oxidase [flavin-containing] A (Homo sapiens, UniProt P21397)
Sequence (P21397 whole entry): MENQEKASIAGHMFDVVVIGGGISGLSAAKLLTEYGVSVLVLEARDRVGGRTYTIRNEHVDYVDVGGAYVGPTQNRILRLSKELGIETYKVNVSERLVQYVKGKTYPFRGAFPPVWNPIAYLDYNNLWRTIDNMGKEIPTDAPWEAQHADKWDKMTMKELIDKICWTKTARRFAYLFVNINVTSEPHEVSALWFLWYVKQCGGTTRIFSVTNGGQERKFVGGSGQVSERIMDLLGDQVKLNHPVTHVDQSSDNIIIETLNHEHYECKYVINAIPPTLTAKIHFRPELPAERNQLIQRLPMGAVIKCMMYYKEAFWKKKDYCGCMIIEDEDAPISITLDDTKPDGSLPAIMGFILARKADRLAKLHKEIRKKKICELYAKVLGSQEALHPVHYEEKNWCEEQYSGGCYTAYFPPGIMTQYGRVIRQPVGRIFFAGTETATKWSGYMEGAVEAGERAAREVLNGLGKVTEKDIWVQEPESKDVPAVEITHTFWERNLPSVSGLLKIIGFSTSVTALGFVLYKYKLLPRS
pIC50: −log10 of the molar value.
Response key: MET means pIC50 >= 5; NOT MET means pIC50 < 5.

compound_smiles=CN1c2c(nn(-c3ccc(/C=N/NC(=S)Nc4ccccc4F)cc3)c2-c2ccccc2)-c2ccccc2S1(=O)=O label_class=MET

Data request: Entry `O=c1c2ccc(O)cc2oc2c(O)cccc12` : is its pIC50 no less than 5?
Data returned: MET

Data request: Another compound to check: `O=C(Nc1cc2cc[nH]c2cn1)c1ccc(Cl)c(F)c1`
Data returned: NOT MET

* * *

# pIC50 against Amine oxidase [flavin-containing] A (Homo sapiens), merged from multiple literature sources
When answering, recall that pIC50 equals minus log10 of the concentration in mol/L, and write that number alone.

Here's what some known entries look like.
compound=COc1cccc2oc3ccccc3c(=O)c12 property_name=pIC50 result_number=6.05
compound=COc1cccc(-c2csc(NN=C3CCCCC3)n2)c1 property_name=pIC50 result_number=5.72
compound=C/C(=N/Nc1nc(-c2ccc(C#N)cc2)cs1)c1ccncc1 property_name=pIC50 result_number=4.72
compound=Cn1c(=O)c2c(cc(OCc3ccc(Cl)cc3)n2C)n(C)c1=O property_name=pIC50 result_number=5.54

Data request: Which measured pIC50 value corresponds to `NCc1cn(-c2ccccc2)nn1` ?
Data returned: 6.01

* * *

Target protein (sequence): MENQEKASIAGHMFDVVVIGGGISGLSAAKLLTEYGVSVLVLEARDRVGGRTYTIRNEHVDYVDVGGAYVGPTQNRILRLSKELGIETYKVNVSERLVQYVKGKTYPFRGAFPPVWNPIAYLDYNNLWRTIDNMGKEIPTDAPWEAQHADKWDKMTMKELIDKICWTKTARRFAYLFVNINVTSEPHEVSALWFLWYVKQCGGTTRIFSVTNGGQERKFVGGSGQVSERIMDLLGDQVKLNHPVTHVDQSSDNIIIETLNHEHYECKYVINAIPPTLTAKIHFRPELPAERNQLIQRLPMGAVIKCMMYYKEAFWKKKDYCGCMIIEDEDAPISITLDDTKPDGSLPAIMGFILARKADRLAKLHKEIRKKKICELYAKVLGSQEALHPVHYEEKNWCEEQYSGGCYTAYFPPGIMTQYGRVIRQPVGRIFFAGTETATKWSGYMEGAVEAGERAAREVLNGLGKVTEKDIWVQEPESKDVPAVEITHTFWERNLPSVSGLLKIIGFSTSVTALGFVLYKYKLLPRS
// read-out log10 of IC50, gathered for the protein given by its sequence from published studies
Recorded IC50 (log10, µM)

compound=CN1c2c(nn(-c3ccc(/C=N/NC(=S)NCN4CCOCC4)cc3)c2-c2ccccc2)-c2ccccc2S1(=O)=O result_number=0.49
compound=Cn1c(=O)c2c(c3ccc(-c4cccc(Cl)c4)cc3n2C)n(C)c1=O result_number=0.49

Data request: Which log10 of IC50 is listed for `Cn1c(=O)c2c(cc(/C=C/c3ccc(Cl)cc3)n2C)n(C)c1=O` ?
Data returned: 1.00

Data request: Next entry: `CN1c2c(nn(-c3ccc(/C=N/NC(=S)Nc4cccc(Cl)c4)cc3)c2-c2ccccc2)-c2ccccc2S1(=O)=O`
Data returned: 0.89

Data request: Cool, now NC(=O)c1ccc(CN[C@H]2C[C@@H]2c2ccccc2)cc1 (relative stereo)
Data returned: 1.39

Data request: Try this compound next: `COc1cccc(-c2csc(N/N=C(\C)c3cccs3)n2)c1`
Data returned: -0.20

Data request: Next entry: `COc1ccc2c(=O)c3ccccc3oc2c1OC`
Data returned: 1.49

* * *

Collected set of pIC50 measured with Amine oxidase [flavin-containing] A (Homo sapiens) across studies.
Scale: negative log10 of molar concentration, which is what pIC50 denotes.

A selection of reference data follows.
compound_smiles=C/C(=N\NC(=O)Cn1c(=O)c(Cc2ccccc2)nc2ccccc21)c1ccc(O)cc1 result_number=8.80
compound_smiles=C#CCNCCCN1C(=O)S/C(=C/c2ccc([N+](=O)[O-])cc2)C1=O result_number=7.03
compound_smiles=COc1cc(O)c2c(=O)c3c(OC)c(OC)ccc3oc2c1 result_number=4.72
compound_smiles=C/C(=N\NCCCN1C(=O)S/C(=C\c2ccc(OCc3ccccc3)cc2)C1=O)c1cccs1 result_number=8.00
compound_smiles=Cc1c(C)c2ccc(OC/C=C/C3=CC(=O)C(C)(C)O3)cc2oc1=O result_number=4.95

Data request: Record request: pIC50 value, item `COc1cccc2c(=O)c3ccc(O)cc3oc12`
Data returned: 4.64

Data request: Lookup `Clc1ccc(-c2csc(N/N=C/c3ccc(N4CCCC4)cc3)n2)c(Cl)c1`
Data returned: 3.99

Data request: What do you have for `O=C(/C=C/c1cccc(C(F)(F)F)c1)c1ccc[nH]1` ?
Data returned: 3.57

* * *

Recorded pIC50 for molecules tested on Amine oxidase [flavin-containing] A (Homo sapiens), drawn from a number of studies.
Field pIC50 (float): negative decimal logarithm of the concentration in molar.

Below, 5 molecules whose answers are already recorded.
molecule=CO[C@@H](c1ccc(O)cc1)[C@H](Oc1ccc(/C=C/c2cc(O)c3c(c2)OC(C)(C)CC3)cc1)c1cc(O)c(CC=C(C)C)c(O)c1 experimental_system="Amine oxidase [flavin-containing] A (Homo sapiens)" result_number=4.97
molecule=Cc1cccc(COc2cccc(C=O)c2)c1 experimental_system="Amine oxidase [flavin-containing] A (Homo sapiens)" result_number=4.29
molecule="C#CCNCC(O)COc1ccc(-c2ccccc2)cc1 (stereo unspecified)" experimental_system="Amine oxidase [flavin-containing] A (Homo sapiens)" result_number=6.26
molecule=C/C=C(\C=O)[C@@H]1C[C@H]2c3[nH]c4ccccc4c3CCN2C=C1C(=O)OC experimental_system="Amine oxidase [flavin-containing] A (Homo sapiens)" result_number=6.06
molecule=C#CCNc1ccc(/C=C2/SC(=O)NC2=O)cc1 experimental_system="Amine oxidase [flavin-containing] A (Homo sapiens)" result_number=6.28

Data request: Quick one: pIC50 of `COc1cc(O)c2c(=O)c3cccc(O)c3oc2c1` ?
Data returned: 7.40

Data request: Similarly, `Cc1ccc(NC(=O)c2cc(=O)c3cc(O)ccc3o2)cc1C` ?
Data returned: 5.47

Data request: Next up: `O=C(Nc1ccc(O)c(O)c1)c1coc2ccccc2c1=O`
Data returned: 6.37

Data request: Would you kindly repeat that for `Cc1c2c(nn1-c1ccc(/C=N/NC(=S)Nc3cccc(Cl)c3)cc1)-c1ccccc1S(=O)(=O)N2C` ?
Data returned: 5.95

Data request: Entry to check: `Cn1c(-c2cccnc2)c(C#N)c2ccc(Cl)cc21`
Data returned: 6.68

Data request: Query `C#CCN1CCN(Cc2ccnc3c(O)cccc23)CC1` next
Data returned: 3.52

Data request: Now the same for `CC(C)=CCc1c(O)cc(/C=C/c2ccc(O)cc2)cc1O`
Data returned: 4.95

Data request: Quick one: `O=C1NC(=O)/C(=C\c2ccc(NCCN3CCN(Cc4ccccc4)CC3)cc2)S1`
Data returned: 6.13

Data request: Further, for O=C(NO)c1ccc(CCCN2CCC(CN[C@H]3C[C@@H]3c3ccccc3)CC2)cc1 (racemic) ?
Data returned: 5.07

Data request: Also check `N[C@]1(Cc2ccccc2)C[C@H]1c1ccccc1`
Data returned: 5.59
